Recorded EC50 (nM), cleavage of purified hC3 in vitro, one value per entry.
- measured.target: human complement protein C3 (human) (UniProt P01024)
- Sequence (P01024 23-667, chain 1 of 2): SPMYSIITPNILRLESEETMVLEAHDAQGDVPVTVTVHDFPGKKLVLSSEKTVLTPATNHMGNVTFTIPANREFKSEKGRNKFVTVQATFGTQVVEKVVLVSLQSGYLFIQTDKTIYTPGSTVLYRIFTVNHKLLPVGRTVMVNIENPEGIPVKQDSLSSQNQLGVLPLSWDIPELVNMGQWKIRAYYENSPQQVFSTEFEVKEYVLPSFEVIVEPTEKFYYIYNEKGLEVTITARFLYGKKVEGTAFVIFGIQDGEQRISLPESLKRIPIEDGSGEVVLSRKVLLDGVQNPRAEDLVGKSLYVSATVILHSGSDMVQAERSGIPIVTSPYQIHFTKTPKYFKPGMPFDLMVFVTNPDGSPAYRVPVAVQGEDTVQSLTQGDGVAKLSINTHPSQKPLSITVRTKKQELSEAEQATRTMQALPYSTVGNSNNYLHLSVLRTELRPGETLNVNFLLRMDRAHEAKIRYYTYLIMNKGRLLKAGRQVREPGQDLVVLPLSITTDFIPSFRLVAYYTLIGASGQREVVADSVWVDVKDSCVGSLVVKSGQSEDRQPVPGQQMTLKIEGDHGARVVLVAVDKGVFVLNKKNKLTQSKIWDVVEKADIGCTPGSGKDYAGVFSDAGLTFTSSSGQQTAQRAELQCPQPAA
- Sequence (P01024 672-1663, chain 2 of 2): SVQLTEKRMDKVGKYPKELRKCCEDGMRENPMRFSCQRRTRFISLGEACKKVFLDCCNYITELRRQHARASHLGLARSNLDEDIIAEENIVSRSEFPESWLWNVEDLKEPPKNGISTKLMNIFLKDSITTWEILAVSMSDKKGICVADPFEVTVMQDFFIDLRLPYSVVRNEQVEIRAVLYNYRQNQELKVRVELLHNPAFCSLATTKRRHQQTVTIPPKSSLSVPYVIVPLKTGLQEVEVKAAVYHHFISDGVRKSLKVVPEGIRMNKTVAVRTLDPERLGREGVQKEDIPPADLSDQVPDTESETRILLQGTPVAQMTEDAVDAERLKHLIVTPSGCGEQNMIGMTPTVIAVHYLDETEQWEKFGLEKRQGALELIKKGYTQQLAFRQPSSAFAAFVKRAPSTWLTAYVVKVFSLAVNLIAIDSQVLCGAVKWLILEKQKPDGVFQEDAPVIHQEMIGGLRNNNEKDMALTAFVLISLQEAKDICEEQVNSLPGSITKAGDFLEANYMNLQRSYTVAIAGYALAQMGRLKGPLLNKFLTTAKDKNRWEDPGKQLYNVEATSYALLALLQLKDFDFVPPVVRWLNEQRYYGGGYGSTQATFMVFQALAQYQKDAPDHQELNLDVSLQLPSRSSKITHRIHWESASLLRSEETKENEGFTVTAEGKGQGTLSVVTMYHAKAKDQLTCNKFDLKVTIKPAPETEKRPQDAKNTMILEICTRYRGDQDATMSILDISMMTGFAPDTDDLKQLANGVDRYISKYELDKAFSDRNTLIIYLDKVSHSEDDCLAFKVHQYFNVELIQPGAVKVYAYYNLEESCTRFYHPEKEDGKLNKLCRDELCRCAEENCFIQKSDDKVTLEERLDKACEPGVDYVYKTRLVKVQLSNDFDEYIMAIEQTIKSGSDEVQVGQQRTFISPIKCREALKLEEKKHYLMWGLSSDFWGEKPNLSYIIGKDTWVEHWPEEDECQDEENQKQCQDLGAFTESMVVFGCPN
- measurement.description: cell-based or functional assay
Give just the numeric value; nM need not be written.

Challenge: # get_value(readout='EC50 (nM), cleavage of purified hC3 in vitro', item= Q38H/I41A/D60bV/F60eR/Y60gW/D96F/F97Y/ins97aN/T98G/F99M/C122S/G151N/Q175L/Q192G (enzyme) VVGGTDADEGEWPWQVSLHALGHGHACGASLISPNWLVSAAHCYIDVRGRRWSDPTQWTAFLGLHDQSQRSAPGVQERRLKRIISHPFFNFYNGMDYDIALLELEKPAEYSSMVRPISLPDASHVFPAGKAIWVTGWGHTQYGGTNALILQKGEIRVINQTTCENLLPQLITPRMMCVGFLSGGVDSCGGDSGGPLSSVEADGRIFQAGVVSWGDGCAQRNKPGVYTRLPLFRDWIKENTGV )
Response given: 3.76

Challenge: How about this binder: Q38H/I41A/D60bV/F60eR/Y60gW/D96I/F97N/T98G/F99L/C122S/G151H/Q175L/Q192D (enzyme) VVGGTDADEGEWPWQVSLHALGHGHACGASLISPNWLVSAAHCYIDVRGRRWSDPTQWTAFLGLHDQSQRSAPGVQERRLKRIISHPFFNINGLDYDIALLELEKPAEYSSMVRPISLPDASHVFPAGKAIWVTGWGHTQYGGTHALILQKGEIRVINQTTCENLLPQLITPRMMCVGFLSGGVDSCDGDSGGPLSSVEADGRIFQAGVVSWGDGCAQRNKPGVYTRLPLFRDWIKENTGV
Response given: 2.52

Then there is this binder:
Challenge: # get_value(readout='EC50 (nM), cleavage of purified hC3 in vitro', item= Q38H/I41S/D60bT/F60eS/Y60gW/D96K/F97G/ins97aV/T98P/F99L/C122S/T150S/G151H/Q175L/Q192D/Q209L (enzyme) VVGGTDADEGEWPWQVSLHALGHGHSCGASLISPNWLVSAAHCYIDTRGSRWSDPTQWTAFLGLHDQSQRSAPGVQERRLKRIISHPFFNKGVPLDYDIALLELEKPAEYSSMVRPISLPDASHVFPAGKAIWVTGWGHTQYGGSHALILQKGEIRVINQTTCENLLPQLITPRMMCVGFLSGGVDSCDGDSGGPLSSVEADGRIFLAGVVSWGDGCAQRNKPGVYTRLPLFRDWIKENTGV )
Response given: 2.88

Values from patent US20240018502A1
